Molecular target: T1, canine NGF tagged at the C-terminus with the Flag tag (canine, UniProt A0A8I3PYI3 122-241)
T1 construct: mature; Expressed with baculovirus technology; also called feline NGF (processed form identical)
T1 sequence (A0A8I3PYI3 entry or part of it): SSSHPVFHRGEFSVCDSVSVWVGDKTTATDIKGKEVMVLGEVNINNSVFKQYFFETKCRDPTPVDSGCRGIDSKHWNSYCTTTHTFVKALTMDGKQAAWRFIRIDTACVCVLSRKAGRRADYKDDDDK
Experiment: SPR off-rate assay, Fab-SASA on BSA chip
Below, each entry is listed alongside its reported Ratio (KD) WT/clones.
Lab note: record just the number, no unit beside it.

Field: example entries. Status: answers known.
binder="AHF17603 (Fab, V domains shown, not shown: small tags and cut ends) VH: DVQLVESGGDLVKPGGSLRLTCVASGLSLTSSSMVWVRQAPGKGLQWVSTIYSNGGTYYTDSVKGRFTISKDNAENTLYLQMNNLKTEDTATYYCASIYYYDADYLHWYFDEWGQGALVTVSS VL: EIQMTQSPTSLSASVGDRVTITCRASEGIANNLSWYQQTPGKAPKLLIYATSILHSGVPSRFSGSGSGTDFTLTISSLQPEDFATYYCQQGYKWPLTFGGGTKLEITR" observed_measurement=5.2
binder="felinized clone 101 Fab-SASA (wild-type) (Fab, V domains shown, not shown: small tags and cut ends) VH: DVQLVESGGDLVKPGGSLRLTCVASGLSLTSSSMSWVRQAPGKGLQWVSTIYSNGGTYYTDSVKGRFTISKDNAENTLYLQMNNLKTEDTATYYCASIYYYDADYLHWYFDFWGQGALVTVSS VL: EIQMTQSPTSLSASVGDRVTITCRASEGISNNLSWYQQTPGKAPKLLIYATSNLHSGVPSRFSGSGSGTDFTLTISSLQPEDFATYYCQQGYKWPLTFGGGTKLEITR" observed_measurement=0

Next, consider the following binder.
Input AHF17610 (Fab, V domains shown, not shown: small tags and cut ends) VH: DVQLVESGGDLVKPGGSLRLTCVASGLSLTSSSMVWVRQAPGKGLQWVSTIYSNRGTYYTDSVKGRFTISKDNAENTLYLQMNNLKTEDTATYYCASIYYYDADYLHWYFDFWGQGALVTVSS VL: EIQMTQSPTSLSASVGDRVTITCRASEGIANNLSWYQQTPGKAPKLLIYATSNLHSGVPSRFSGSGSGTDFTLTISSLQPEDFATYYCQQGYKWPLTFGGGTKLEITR , output reported Ratio (KD) WT/clones.
629
